# PROCEDURE TEXT: BSK_3C_SRB: Viability Assessment in the BioMAP Diversity Plus: 3C Assay (AID 2283023);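 further: cells read 24 h after compound dosing; fitted both ways against DMSO so a hit may be signal rise or drop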
# ASSAY CONDITIONS: primary human endothelial cells (HUVEC)
The source made the active and inactive calls. How the source made its calls: active means hit-call score of the fitted dose curve at least 0.9, where 1 is the maximum; inactive means score below 0.9.
Give one outcome, nothing more. List: active, inactive

For orientation, consider the following solved cases.
[[record]]
compound = "CCOc1nc(C(Cl)(Cl)Cl)ns1"
label_value = "inactive"

[[record]]
compound = "COc1cc(OC)nc(NC(=O)NS(=O)(=O)c2ncccc2OCC(F)(F)F)n1"
label_value = "inactive"

[[record]]
compound = "C=C(C)CN(CC)c1c([N+](=O)[O-])cc(C(F)(F)F)cc1[N+](=O)[O-]"
label_value = "active"


Task: Record request — test call for `O=C(Nc1ccccc1-c1ccc(Cl)cc1)c1cccnc1Cl`
Result: inactive

Task: Record request — test call for `O=P(O)(O)CCCl`
Result: inactive

Task: Record request — test call for CC(C)(C)C(=O)C(Oc1ccc(Cl)cc1)n1cncn1 (configuration not stated)
Result: inactive

Task: Record request — test call for `COc1cc(Cl)c(OC)cc1Cl`
Result: inactive

Task: Record request — test call for `CNC(=O)Oc1cccc2ccccc12`
Result: active

All figures here come from PubChem BioAssay (EPA / NIEHS).
